The measured values listed here are drawn from ChEMBL document CHEMBL1158870.

Reported values of GI50 for individual entries
- Test system: DU-145
- PROTOCOL DETAILS: Cytotoxicity against human DU145 cells by SRB assay
- Type: functional
Response body: numeric value in µM, unit text excluded.

In the examples that follow, each entry is paired with its recorded GI50.
[[record]]
smiles_representation = "C=C(C)[C@@H](O)[C@H](O)C[C@H](C)[C@@H]1CC[C@]2(C)C1=CC[C@@H]1[C@@]3(C)CC[C@@H](OC(C)=O)C(C)(C)[C@@H]3C[C@@H](O[C@@H]3O[C@H](COC(C)=O)[C@@H](O)[C@H](O)[C@H]3O)[C@]12C"
reported_measurement = 2.57

[[record]]
smiles_representation = "COC(C)(C)[C@@H](O)[C@H](O)C[C@H](C)C1=C2CC[C@@H]3[C@@]4(C)CC[C@@H](OC(C)=O)C(C)(C)[C@@H]4C[C@@H](O[C@@H]4O[C@H](COC(C)=O)[C@@H](O)[C@H](O)[C@H]4O)[C@@]3(C)[C@]2(C)CC1"
reported_measurement = 15.1

[[record]]
smiles_representation = "CC(=O)OC[C@H]1O[C@@H](O[C@@H]2C[C@H]3C(C)(C)[C@H](OC(C)=O)CC[C@]3(C)[C@H]3CCC4=C([C@@H](C)C[C@@H](O)[C@H](O)C(C)(C)O)CC[C@@]4(C)[C@@]32C)[C@H](O)[C@@H](O)[C@@H]1O"
reported_measurement = 17.8


Here's the next entry for you.
-- ask Query GI50 on DU-145 for "CC(=O)OC[C@H]1O[C@@H](O[C@@H]2C[C@H]3C(C)(C)[C@H](OC(C)=O)CC[C@]3(C)[C@H]3CC[C@@]45C[C@H](O)C[C@H](C)[C@@H]4CC=C5[C@@]32C)[C@H](O)[C@@H](O)[C@@H]1O"
-- reply 10.5
